quantity: melting point

Sample answers from the record:
molecule	melting point
COc1ccc2cc(C(C)Cl)ccc2c1 (stereo not given)	82 to 84 °C
O=S(=O)(F)Cc1ccccc1Cl	69 to 71 °C
O=C(O)c1cnc(-c2ccoc2)s1	226 to 228 °C
BrCc1cnn(-c2ccccc2)n1	44 to 46 °C

Query molecule follows.
# input Can you look up the measured melting point of ON=Cc1ccc(OCc2ccccc2)cc1 for me?
# output 109 to 111 °C
